# TEST SYSTEM: Lysosomal acid glucosylceramidase (Homo sapiens, UniProt P04062)
# Sequence (P04062 whole entry): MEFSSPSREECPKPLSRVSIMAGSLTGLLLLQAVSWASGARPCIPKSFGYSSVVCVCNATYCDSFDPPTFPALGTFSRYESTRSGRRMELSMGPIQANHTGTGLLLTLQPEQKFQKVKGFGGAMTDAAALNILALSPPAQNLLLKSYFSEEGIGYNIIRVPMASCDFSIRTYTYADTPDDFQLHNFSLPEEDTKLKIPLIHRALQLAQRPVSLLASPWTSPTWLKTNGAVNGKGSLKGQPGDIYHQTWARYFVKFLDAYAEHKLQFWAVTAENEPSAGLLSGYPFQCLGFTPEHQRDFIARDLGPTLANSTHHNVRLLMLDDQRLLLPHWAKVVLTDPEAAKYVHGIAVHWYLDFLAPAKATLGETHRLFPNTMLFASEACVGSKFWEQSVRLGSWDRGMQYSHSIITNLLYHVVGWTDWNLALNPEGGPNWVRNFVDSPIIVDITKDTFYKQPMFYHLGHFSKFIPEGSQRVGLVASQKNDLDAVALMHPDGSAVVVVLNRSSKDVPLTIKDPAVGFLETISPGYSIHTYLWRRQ
# PROCEDURE TEXT: Inhibition of recombinant glucocerebrosidase in McIlvaine buffer at pH 5.2 after 10 mins by fluorometric analysis
RECORDED ENDPOINT: IC50 (µM)
Only the number, expressed in µM, is required.

Field: example entries. Status: answers known.
O[C@@H]1[C@@H](O)[C@H](O)[C@@H](NCc2cn(Cc3cccc(I)c3)nn2)[C@H](O)[C@H]1O | 10.3
O[C@@H]1[C@@H](O)[C@H](O)[C@@H](NCc2cn(CCCc3nc4ccc(C(F)(F)F)cc4[nH]3)nn2)[C@H](O)[C@H]1O | 12.2
O[C@@H]1[C@@H](O)[C@H](O)[C@@H](NCc2cn(Cc3cc(OCc4ccccc4)cc(OCc4ccccc4)c3)nn2)[C@H](O)[C@H]1O | 0.05

Query: # get_value(readout='IC50', item= `CCCCCCCCCCCn1cc(CN[C@H]2[C@H](O)[C@@H](O)[C@H](O)[C@@H](O)[C@@H]2O)nn1` )
Response: 0.06

Query: # lookup: IC50 of `Cn1nnc2ccc(Cn3cc(CN[C@H]4[C@H](O)[C@@H](O)[C@H](O)[C@@H](O)[C@@H]4O)nn3)cc21`
Response: 114

Query: Could you share which IC50 value was measured for `O[C@@H]1[C@@H](O)[C@H](O)[C@@H](NCc2cn(Cc3cc4nsnc4cc3Cl)nn2)[C@H](O)[C@H]1O` ?
Response: 17.3

Query: Sample `CCCCOCCCOCCCn1cc(CN[C@H]2[C@H](O)[C@@H](O)[C@H](O)[C@@H](O)[C@@H]2O)nn1` — what was its IC50?
Response: 181

Query: What does the record list as IC50 for `CCCCCCCCCCn1cc(CN[C@H]2[C@H](O)[C@@H](O)[C@H](O)[C@@H](O)[C@@H]2O)nn1` ?
Response: 0.15

Query: Query (compound): `OCCCCCCCn1cc(CN[C@H]2[C@H](O)[C@@H](O)[C@H](O)[C@@H](O)[C@@H]2O)nn1` ; field requested: IC50
Response: 5.8

Query: Quick one: IC50 for `O[C@@H]1[C@@H](O)[C@H](O)[C@@H](NCc2cn(Cc3ccc(CN4CCCCC4)cc3)nn2)[C@H](O)[C@H]1O` ?
Response: 30.9

Query: Report IC50 for `CCCCc1ncc(Cn2cc(CN[C@H]3[C@H](O)[C@@H](O)[C@H](O)[C@@H](O)[C@@H]3O)nn2)[nH]1` please.
Response: 237

Query: Recorded IC50 for `CSCCCn1cc(CN[C@H]2[C@H](O)[C@@H](O)[C@H](O)[C@@H](O)[C@@H]2O)nn1` , please?
Response: 44.5

Query: Sample `O[C@@H]1[C@@H](O)[C@H](O)[C@@H](NCc2cn(CCCCCOCc3ccccc3)nn2)[C@H](O)[C@H]1O` — what was its IC50?
Response: 10

Query: # query: IC50 of entry `COCCCOCCCn1cc(CN[C@H]2[C@H](O)[C@@H](O)[C@H](O)[C@@H](O)[C@@H]2O)nn1`
Response: 466

Query: Recorded IC50 for `CCCCCCCCn1cc(CN[C@H]2[C@H](O)[C@@H](O)[C@H](O)[C@@H](O)[C@@H]2O)nn1` , please?
Response: 2.25

Query: Item `OCCCCCCCCCCn1cc(CN[C@H]2[C@H](O)[C@@H](O)[C@H](O)[C@@H](O)[C@@H]2O)nn1` has what recorded IC50?
Response: 2.19

Query: Given the compound `O[C@@H]1[C@@H](O)[C@H](O)[C@@H](NCc2cn(C3CSCCCSC3)nn2)[C@H](O)[C@H]1O` , what is its reported IC50?
Response: 35.9

Query: Bench note: what IC50 did `O[C@@H]1[C@@H](O)[C@H](O)[C@@H](NCc2cn(CCC(c3ccccc3)c3ccccc3)nn2)[C@H](O)[C@H]1O` show?
Response: 1.5

Query: What value of measured IC50 is listed for `CC(C)(CO)Cn1cc(CN[C@H]2[C@H](O)[C@@H](O)[C@H](O)[C@@H](O)[C@@H]2O)nn1` ?
Response: 134
